Target: FGFR1 (Homo sapiens, UniProt P11362)
Sequence (P11362 22-822): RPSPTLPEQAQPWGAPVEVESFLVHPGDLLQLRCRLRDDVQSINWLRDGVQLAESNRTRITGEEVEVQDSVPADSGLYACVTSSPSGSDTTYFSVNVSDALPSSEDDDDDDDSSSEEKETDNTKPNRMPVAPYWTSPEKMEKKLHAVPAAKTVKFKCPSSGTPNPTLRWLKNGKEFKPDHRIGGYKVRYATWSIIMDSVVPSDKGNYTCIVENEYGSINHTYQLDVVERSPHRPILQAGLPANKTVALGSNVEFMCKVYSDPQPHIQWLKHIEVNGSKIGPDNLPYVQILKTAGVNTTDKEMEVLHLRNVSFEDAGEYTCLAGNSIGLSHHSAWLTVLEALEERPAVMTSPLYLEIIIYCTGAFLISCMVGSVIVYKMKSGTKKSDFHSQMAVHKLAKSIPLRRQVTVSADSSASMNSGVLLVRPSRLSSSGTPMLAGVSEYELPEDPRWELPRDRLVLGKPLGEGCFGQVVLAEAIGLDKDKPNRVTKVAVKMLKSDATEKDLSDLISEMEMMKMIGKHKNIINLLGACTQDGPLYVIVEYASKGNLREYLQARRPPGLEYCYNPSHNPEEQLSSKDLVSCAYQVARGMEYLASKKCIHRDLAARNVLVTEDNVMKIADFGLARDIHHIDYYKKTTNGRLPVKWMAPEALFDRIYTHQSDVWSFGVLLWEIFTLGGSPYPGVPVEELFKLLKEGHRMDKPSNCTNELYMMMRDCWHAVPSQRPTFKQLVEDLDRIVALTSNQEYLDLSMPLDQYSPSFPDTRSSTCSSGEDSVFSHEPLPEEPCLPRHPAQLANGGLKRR
Assay: Enzyme Fragment Complementation cell-based assay, FGFR1
Settings: cryopreserved U2OS-cells expressing FGFR1; ligand 10 ng/mL; 3 hours incubation
Description: A high throughput cell-based screen has been used to identify positive modulators of TrkA, TrkB and TrkC. The screen involves the use of cell-based assay overexpressing TrkA, TrkB or TrkC. […] The assay uses Enzyme Fragment Complementation (EFC) technique, which is a proximity-based assay. […] The activation of the receptor is quantified by measuring the amount of active beta-galactosidase by its conversion of a non-luminescent substrate into a luminescent product. […]
Known EC50 of a selection of compounds
Measurement name: EC50 (nM)

> print(dat)
                                   compound  numeric.result
1  Cc1cc(-n2c(=O)[nH]c(=O)n(-c3ccccc3)c2=O)ccc1Oc1ccccc1 [Example 5]             290
2  O=c1[nH]c(=O)n(-c2ccc(Oc3ccccc3)cc2)c(=O)n1-c1ccccc1 [Example 1]             890
3  COc1cc(Oc2ccccc2)ccc1-n1c(=O)[nH]c(=O)n(-c2ccccc2)c1=O [Example 9]             170
4  N#Cc1cc(-n2c(=O)[nH]c(=O)n(-c3ccccc3)c2=O)ccc1Oc1ccccc1 [Example 12]            4700
5  COc1cc(-n2c(=O)[nH]c(=O)n(-c3ccccc3)c2=O)ccc1Oc1ccccc1 [Example 11]             340
6  O=c1[nH]c(=O)n(-c2ccc(N3CCOCC3)cc2)c(=O)n1-c1ccc(Oc2ccccc2)cc1 [Example 10]            2800
7  COc1cccc(-n2c(=O)[nH]c(=O)n(-c3ccc(Oc4ccccc4)cc3)c2=O)c1 [Example 4]             580

---

Molecular target: TrkA (Homo sapiens, UniProt P04629)
Sequence (P04629 33-796): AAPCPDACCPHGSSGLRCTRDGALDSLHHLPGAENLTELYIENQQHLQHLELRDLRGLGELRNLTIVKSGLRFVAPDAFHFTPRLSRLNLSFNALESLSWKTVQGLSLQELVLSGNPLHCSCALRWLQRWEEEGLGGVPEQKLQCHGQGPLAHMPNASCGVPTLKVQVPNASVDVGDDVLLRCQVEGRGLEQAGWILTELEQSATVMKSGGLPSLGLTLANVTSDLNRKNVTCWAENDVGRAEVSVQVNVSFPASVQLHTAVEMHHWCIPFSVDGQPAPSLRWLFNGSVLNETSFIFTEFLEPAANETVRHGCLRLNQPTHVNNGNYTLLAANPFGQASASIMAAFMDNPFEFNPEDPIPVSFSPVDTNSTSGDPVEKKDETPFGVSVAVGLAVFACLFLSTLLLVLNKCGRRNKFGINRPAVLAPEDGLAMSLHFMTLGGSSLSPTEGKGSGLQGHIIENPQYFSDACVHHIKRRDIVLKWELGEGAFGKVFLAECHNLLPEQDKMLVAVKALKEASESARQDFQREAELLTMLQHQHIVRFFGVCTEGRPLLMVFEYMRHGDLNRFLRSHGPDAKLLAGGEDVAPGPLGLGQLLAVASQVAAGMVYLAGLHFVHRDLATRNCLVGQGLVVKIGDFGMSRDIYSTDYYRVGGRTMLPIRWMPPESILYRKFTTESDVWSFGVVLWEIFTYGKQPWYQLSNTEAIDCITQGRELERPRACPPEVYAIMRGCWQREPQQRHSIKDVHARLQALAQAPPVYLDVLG
Assay: Enzyme Fragment Complementation cell-based assay, TrkA
Conditions: U2OS-cells over-expressing TrkA; ligand 10 ng/mL; 3 hours incubation
Measurement name: EC50 (µM)

> print(dat)
                                    compound  unit.symbol  numeric.result
 1  COCCOc1cc(-n2c(=O)[nH]c(=O)n(-c3cccc(C)c3)c2=O)ccc1Oc1ccccc1 [Example 57]           µM            0.18
 2  Cc1cc(-n2c(=O)[nH]c(=O)n(-c3ccccc3)c2=O)ccc1Oc1ccccc1 [Example 5]           µM            0.34
 3  N#Cc1ccc(Oc2ccc(-n3c(=O)[nH]c(=O)n(-c4ccccc4)c3=O)cc2)cc1 [Example 8]           µM             1.6
 4  Cc1cc(-n2c(=O)[nH]c(=O)n(-c3ccc(Oc4ccccc4)c(C)c3)c2=O)ccc1Oc1ccccc1 [Example 67]           µM             3.2
 5  Cc1cc(-n2c(=O)[nH]c(=O)n(-c3cccc4ccoc34)c2=O)ccc1Oc1ccccc1 [Example 73]           µM            0.14
 6  Cc1ccc(-n2c(=O)[nH]c(=O)n(-c3ccc(Oc4ccccc4)c(C)c3)c2=O)s1 [Example 40]           µM            0.26
 7  COCCOc1cc(-n2c(=O)[nH]c(=O)n(-c3ccc(C)cc3)c2=O)ccc1Oc1ccccc1 [Example 56]           µM            0.29
 8  Cc1cc(-n2c(=O)[nH]c(=O)n(-c3ccccc3)c2=O)ccc1Sc1ccccc1 [Example 34]           µM             1.6
 9  Cc1ccc(-n2c(=O)[nH]c(=O)n(-c3ccc(Oc4ccccc4)cc3C)c2=O)cc1 [Example 71]           µM            1.66
10  Cc1cc(-n2c(=O)[nH]c(=O)n(C)c2=O)ccc1Oc1ccccc1 [Example 55]           µM            0.39
11  COCCOc1cc(-n2c(=O)[nH]c(=O)n(-c3ccc(C)s3)c2=O)ccc1Oc1ccccc1 [Example 66]           µM            0.37
12  Cc1cn(-c2ccccc2)c2ccc(-n3c(=O)[nH]c(=O)n(-c4ccccc4)c3=O)cc12 [Example 35]           µM            0.98
13  COc1cc(-n2c(=O)[nH]c(=O)n(-c3ccccc3)c2=O)cc(C)c1Oc1ccccc1 [Example 14]           µM            0.49
14  Cc1cc(Oc2ccccc2)ccc1-n1c(=O)[nH]c(=O)n(-c2ccccc2)c1=O [Example 70]           µM            0.66
15  CN(C)C(=O)Cc1cc(-n2c(=O)[nH]c(=O)n(-c3ccccc3)c2=O)ccc1Oc1ccccc1 [Example 76]           µM              33
16  O=c1[nH]c(=O)n(-c2ccc(Oc3ccc(Cl)cc3)cc2)c(=O)n1-c1ccccc1 [Example 7]           µM             3.9
17  Cn1c(=O)[nH]c(=O)n(-c2ccc(Oc3ccccc3)c(OCC3COC3)c2)c1=O [Example 24]           µM             0.5
18  Cn1c(=O)[nH]c(=O)n(-c2ccc(Oc3ccccc3)c(OCc3ccccc3)c2)c1=O [Example 30]           µM             1.1
19  N#Cc1cccc(-n2c(=O)[nH]c(=O)n(-c3ccc(Oc4ccccc4)cc3)c2=O)c1 [Example 3]           µM             6.7
20  COc1ccc(-n2c(=O)[nH]c(=O)n(-c3ccc(Oc4ccccc4)c(OC)c3)c2=O)cc1 [Example 53]           µM            0.96
21  CC(C)Oc1cc(-n2c(=O)[nH]c(=O)n(-c3ccccc3)c2=O)ccc1Oc1ccccc1 [Example 27]           µM            0.36
22  Cc1cc(-n2c(=O)[nH]c(=O)n(-c3cnn(-c4ccccc4)c3)c2=O)ccc1Oc1ccccc1 [Example 68]           µM            0.23
23  COc1cccc(-n2c(=O)[nH]c(=O)n(-c3ccc(Oc4ccccc4)cc3)c2=O)c1 [Example 4]           µM            0.83
24  Cc1cc(-n2c(=O)[nH]c(=O)n(-c3cccc4[nH]ccc34)c2=O)ccc1Oc1ccccc1 [Example 49]           µM            0.19
25  COc1cccc(-n2c(=O)[nH]c(=O)n(-c3ccc(Oc4ccccc4)c(OC)c3)c2=O)c1 [Example 52]           µM            0.38
26  Cc1cc(-n2c(=O)[nH]c(=O)n(-c3ccccc3)c2=O)c(C)cc1Oc1ccccc1 [Example 54]           µM            0.44
27  CN(C)C(=O)COc1cc(-n2c(=O)[nH]c(=O)n(-c3ccccc3)c2=O)ccc1Oc1ccccc1 [Example 77]           µM            0.43
28  COc1cc(Oc2ccccc2)ccc1-n1c(=O)[nH]c(=O)n(-c2ccccc2)c1=O [Example 9]           µM            0.23
29  Cc1ccc(-n2c(=O)[nH]c(=O)n(-c3cnc(Oc4ccccc4)c(C)c3)c2=O)cc1 [Example 78]           µM            3.51
30  Cc1ccc(-n2c(=O)[nH]c(=O)n(-c3ccc(Oc4ccccc4)c(C)c3)c2=O)cc1 [Example 41]           µM            0.25
31  Cc1cc(-n2c(=O)[nH]c(=O)n(-c3cscn3)c2=O)ccc1Oc1ccccc1 [Example 63]           µM            2.38
32  Cc1cc(-n2c(=O)[nH]c(=O)n(-c3cccc(OC(F)(F)F)c3)c2=O)ccc1Oc1ccccc1 [Example 44]           µM            0.33

---

The entries below are paired with their reported EC50.
Biological target: TrkA (Homo sapiens)
Test: Enzyme Fragment Complementation cell-based assay, TrkA
Settings: U2OS-cells over-expressing TrkA; ligand 10 ng/mL; 3 hours incubation
Measurement name: EC50 (nM)

> print(dat)
                                    compound  numeric.result
 1  Cc1cc(-n2c(=O)[nH]c(=O)n(-c3cccc4occc34)c2=O)ccc1Oc1ccccc1 [Example 72]             200
 2  Cn1c(=O)[nH]c(=O)n(-c2ccc3c(cnn3-c3ccccc3)c2)c1=O [Example 31]           46000
 3  COCCOc1cc(-n2c(=O)[nH]c(=O)n(-c3cccc(OC)c3)c2=O)ccc1Oc1ccccc1 [Example 61]             420
 4  Cn1c(=O)[nH]c(=O)n(-c2ccc(Oc3ccccc3)c(OC3CCCC3)c2)c1=O [Example 15]             590
 5  COc1cc(Oc2ccccc2)c(C)cc1-n1c(=O)[nH]c(=O)n(-c2ccccc2)c1=O [Example 13]             620
 6  COCCOc1cc(-n2c(=O)[nH]c(=O)n(-c3ccc(OC)cc3)c2=O)ccc1Oc1ccccc1 [Example 60]             300
 7  Cn1c(=O)[nH]c(=O)n(-c2ccc(Oc3ccccc3)c(OC3CCOC3)c2)c1=O (stereo not shown) [Example 22]            1300
 8  Cn1c(=O)[nH]c(=O)n(-c2ccc(Oc3ccc(Cl)cc3)cc2)c1=O [Example 64]            4400
 9  CC(C)Oc1cc(-n2c(=O)[nH]c(=O)n(C)c2=O)ccc1Oc1ccccc1 [Example 26]            1100
10  O=c1[nH]c(=O)n(-c2ccc(Oc3ccccc3)cc2)c(=O)n1-c1ccccc1 [Example 1]            1300
11  COc1ccc(-n2c(=O)[nH]c(=O)n(-c3ccc(Oc4ccccc4)cc3)c2=O)cc1 [Example 2]            1400
12  COCCOc1cc(-n2c(=O)[nH]c(=O)n(-c3cccc(Cl)c3)c2=O)ccc1Oc1ccccc1 [Example 58]             220
13  Cc1cc(-n2c(=O)[nH]c(=O)n(-c3ccc4c(c3)OCO4)c2=O)ccc1Oc1ccccc1 [Example 48]             500
